- ASSAY REMARKS: qHTS for Inhibitors of ATXN expression: Validation of Cytotoxic Assay (AID 588349);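 further: cells exposed to compound for 72 hr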
- MEASUREMENT SETUP: cytotoxicity counter-screen for ATXN expression inhibitors, cell viability; series mostly up to 57.1 µM
Inconclusive results are not listed. Activity calls are given as the source filed them. The call rests on the fitted dose curve; in most records, active means well fitted cell-killing curve with a large enough effect; inconclusive means small, poorly fitted or top-dose-only effect, or effect the other way; inactive means flat fitted curve, though single readings scatter.
Select the correct class. Options are active, inactive and nothing else.

Qu. Hello, I am checking results. What call was entered for c1ccc(C2CN3CCSC3=N2)cc1 (stereo unspecified) ?
Ans. inactive

Qu. Also check C=CC1(C)CC(=O)C2(O)C(C)(O1)C(OC(C)=O)C(O)C1C(C)(C)CCC(O)C12C (stereo unspecified)
Ans. inactive

Qu. Next: CCCc1c(OCCCOc2ccc(OCC(=O)O)cc2)ccc(C(C)=O)c1O
Ans. inactive

Qu. Please answer likewise for Cn1ccnc1
Ans. inactive

Qu. // query: CNCCNS(=O)(=O)c1cccc2cnccc12
Ans. inactive

Qu. Moving on to CC(C)NC[C@H](O)COc1cccc2ccccc12
Ans. inactive

Qu. # repeat for O=C(O)/C=C/c1ccc(O)c(O)c1
Ans. inactive

Qu. Moving on to C=CC[C@H](N)C(=O)O
Ans. inactive

Qu. Repeat for the following compound: Cc1nc(N=Nc2cc(S(=O)(=O)O)c3cc([N+](=O)[O-])cc(S(=O)(=O)O)c3c2)c(COP(=O)(O)O)c(C=O)c1O
Ans. inactive

Qu. Queued: CCCn1c(=O)c2[nH]c(C3CCCC3)nc2n(CCC)c1=O
Ans. inactive

Qu. What do you get for CC(=O)O[C@H]1CC2(C)[C@@H](C[C@@H](O)[C@H]3[C@@]4(C)CC[C@@H](O)[C@@H](C)[C@@H]4CC[C@@]32C)C1=C(CCC=C(C)C)C(=O)O (stereo partly specified) ?
Ans. inactive

Qu. Also check NC(=O)CNCCC(c1ccccc1)c1ccccc1
Ans. inactive

Qu. Again, but for CCCCOc1cc(CC2CNC(=O)N2)ccc1OC (stereo unspecified)
Ans. inactive

Qu. What about OCC1NCC(O)C(O)C1O (stereo unspecified) ?
Ans. inactive

Qu. Could you do the same for OC[C@H]1O[C@@H](n2cnc3cncnc32)[C@H](O)[C@@H]1O , please?
Ans. inactive

Qu. Quick one: NC[C@@H]1O[C@H](c2ccccc2)Cc2c1ccc(O)c2O
Ans. inactive

Qu. Continue with N[C@@H](Cc1c[nH]c2ccccc12)C(=O)O
Ans. inactive

---

- ASSAY REMARKS: qHTS for differential inhibitors of proliferation of Plasmodium falciparum line GB4 (AID 1816);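 further: parasite growth measured after 72 h incubation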; further: potency means the concentration at half of the fitted maximal effect
- MEASUREMENT SETUP: Plasmodium falciparum GB4 proliferation inhibition; series mostly up to 28.7 µM
Records with an inconclusive call do not appear. Active and inactive are the calls of the source. Calls come from the whole dose curve; as a rule, active = well fitted curve in the direction sought with a large enough effect; inconclusive = small, poorly fitted or top-dose-only effect, or another doubt; inactive = no such curve, though single readings can be large or run the other way.
MEASURE NAME: Potency

{"COMPOUND": "CNc1cc(NS(=O)(=O)c2ccc(N)cc2)nc(NC)n1", "ENDPOINT RESULT": "inactive"}
{"COMPOUND": "C[C@H](NC(=O)/C(C#N)=C/c1ccc(O)c(O)c1)c1ccccc1", "ENDPOINT RESULT": "11.2 µM (active)"}
{"COMPOUND": "Cc1cccc(C2CN(C)CCc3c2cc(O)c(O)c3Cl)c1 (configuration not stated)", "ENDPOINT RESULT": "8.91 µM (active)"}
{"COMPOUND": "CN(C)C(=O)/N=N/C(=O)N(C)C", "ENDPOINT RESULT": "inactive"}
{"COMPOUND": "NCCS(=O)O", "ENDPOINT RESULT": "inactive"}
{"COMPOUND": "C/C(=C\\c1ccc(C(=O)O)cc1)c1ccc2c(c1)C(C)(C)CCC2(C)C", "ENDPOINT RESULT": "inactive"}

Okay, next one:
Qu. Could you tell me which Potency is on file for Nc1ncnc2c1c(-c1ccc(Oc3ccccc3)cc1)cn2C1CCCC1 ?
Ans. 2.51 µM (active)

---

- ASSAY SYSTEM: Calcium and integrin-binding protein 1 (Homo sapiens) (UniProt Q99828)
- Sequence (Q99828 whole entry, looked up): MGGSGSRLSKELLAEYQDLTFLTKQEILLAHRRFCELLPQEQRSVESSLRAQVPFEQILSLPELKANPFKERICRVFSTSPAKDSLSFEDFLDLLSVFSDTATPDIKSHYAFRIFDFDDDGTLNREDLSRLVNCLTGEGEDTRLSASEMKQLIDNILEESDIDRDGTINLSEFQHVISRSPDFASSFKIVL
- ASSAY REMARKS: Validation qHTS for Identification of Calcium Integrin Binding protein 1 (CIB1) Competitor (AID 1508618)
- MEASUREMENT SETUP: CIB1-GST / FITC-alphaIIb peptide fluorescence polarization; series mostly up to 114 µM
Records with an inconclusive call do not appear. The source made the active and inactive calls. The call rests on the fitted dose curve; in most records, active means well fitted curve in the direction sought with a large enough effect; inconclusive means small, poorly fitted or top-dose-only effect, or another doubt; inactive means no such curve, though single readings can be large or run the other way.
MEASURE NAME: outcome

Example entries and their recorded answers appear below.
{"MOLECULE": "C[C@H]1CC2C3CCC4=CC(=O)C=C[C@]4(C)[C@@]3(Cl)[C@@H](O)C[C@]2(C)[C@@]1(O)C(=O)CO (stereo not given in full)", "outcome": "inactive"}
{"MOLECULE": "CN(C)C(=O)/N=N/C(=O)N(C)C", "outcome": "inactive"}
{"MOLECULE": "N[C@@H](Cc1ccc(F)cc1)C(=O)O", "outcome": "inactive"}
{"MOLECULE": "CCN(CC)CCOC(=O)c1cc(Cl)c(N)cc1OC", "outcome": "inactive"}

Qu. Report outcome for Cc1nc(N=Nc2ccc(S(=O)(=O)O)cc2S(=O)(=O)O)c(COP(=O)(O)O)c(C=O)c1O please.
Ans. inactive

---

- ASSAY SYSTEM: Muscarinic acetylcholine receptor M1 (Rattus norvegicus)
- ASSAY REMARKS: qHTS Assay for Antagonists of Acetylcholine Muscarinic M1 Receptor: Kinetic Measurement of Intracellular Calcium Response (AID 943); further: nearly all actives have a fitted effect of over 75% in size
- MEASUREMENT SETUP: M1-expressing cells, kinetic intracellular calcium fluorescence; series mostly up to 35.3 µM
Inconclusive results are not listed. Calls of active or inactive are those of the source. Calls come from the whole dose curve; as a rule, active = well fitted inhibition curve with a large enough effect; inconclusive = small, poorly fitted or top-dose-only effect; inactive = no such curve, though single readings can be large or run the other way.
A correct response names exactly one class from active, inactive

{"SMILES STRING": "Cc1ccc([N+](=O)[O-])cc1S(=O)(=O)N(C)C", "LABEL VALUE": "inactive"}

Qu. Tell me the recorded outcome of this test for O=c1onc2n1-c1cc(Br)ccc1OC2 .
Ans. inactive

Qu. Do the same for Nc1nc2ccc(Cl)cc2c2nc(-c3ccco3)nn12 please
Ans. inactive

Qu. Could you do the same for O=c1cc(-c2ccccc2)[nH]c2nc(Cl)ccc12 , please?
Ans. inactive

Qu. Input COc1ccc2c(c1)c(CC(=O)O)c(C)n2C(=O)c1ccccc1
Ans. inactive

Qu. Same for Cc1nc(N=Nc2ccc(S(=O)(=O)O)cc2S(=O)(=O)O)c(COP(=O)(O)O)c(C=O)c1O
Ans. inactive

Qu. Same for NC(N)=NC(N)=Nc1ccccc1
Ans. inactive

Qu. Let us now turn to O=C(O)c1cccnc1C(=O)O
Ans. inactive

Qu. Next entry: CC(C)(CO)Cc1cc(C(C)(C)C)c(O)c(C(C)(C)C)c1
Ans. inactive

Qu. Ok, now O=C(O)C1=CCCNC1
Ans. inactive

Qu. Can you check COc1cc(CNC(=O)CCCCCCC(C)C)ccc1O next?
Ans. inactive

Qu. Now this one: COc1ccc(C(=O)NCc2cccnc2)cc1C(=O)NCc1cccnc1
Ans. inactive

Qu. Please do the same for CCN(CC)CCCCCCCCOC(=O)c1cc(OC)c(OC)c(OC)c1 as well.
Ans. active

---

- ASSAY REMARKS: qHTS for differential inhibitors of proliferation of Plasmodium falciparum line 7G8 (AID 1815);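 further: parasite growth measured after three days of incubation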
- MEASUREMENT SETUP: Plasmodium falciparum 7G8 proliferation inhibition; series mostly up to 28.7 µM
Records with an inconclusive call do not appear. The source made the active and inactive calls. The call rests on the fitted dose curve; in most records, active means well fitted curve in the direction sought with a large enough effect; inconclusive means small, poorly fitted or top-dose-only effect, or another doubt; inactive means no such curve, though single readings can be large or run the other way.
Tick one outcome: Yes for active, No for inactive

{"MOLECULE": "O=C(O)c1ccccc1Nc1ccccc1", "LABEL VALUE": "No"}
{"MOLECULE": "CCCC[C@@]1(C2CCCC2)Cc2cc(OCC(=O)O)c(Cl)c(Cl)c2C1=O", "LABEL VALUE": "Yes"}
{"MOLECULE": "O=C1NC(=O)c2cc(Nc3ccccc3)c(Nc3ccccc3)cc21", "LABEL VALUE": "Yes"}
{"MOLECULE": "CC(C)C[C@H](NC(=O)[C@H](O)[C@H](N)Cc1ccccc1)C(=O)O", "LABEL VALUE": "No"}
{"MOLECULE": "O=C(O)C1=CCCN(CCON=C(c2ccccc2)c2ccccc2)C1", "LABEL VALUE": "No"}
{"MOLECULE": "O=c1cc(-c2ccccc2)[nH]c2nc(Cl)ccc12", "LABEL VALUE": "Yes"}
{"MOLECULE": "CC(N)=NCCCC[C@@H](N)C(=O)O", "LABEL VALUE": "No"}
{"MOLECULE": "CCC1(O)CC2CN(CCc3c([nH]c4ccccc34)[C@@](C(=O)OC)(c3cc4c(cc3OC)N(C=O)C3[C@]45CCN4CC=C[C@@](CC)([C@@H](OC(C)=O)[C@]3(O)C(=O)OC)[C@H]45)C2)C1 (stereo partly specified)", "LABEL VALUE": "Yes"}

Qu. What classification did Cc1cccc(C)c1OCC(N)C(C)C (stereo unspecified) end up with in this test?
Ans. Yes

Qu. // next record O=[N+]([O-])c1cccc2cn[nH]c12
Ans. No

Qu. Also, NCCCNCCCCNCCCN please.
Ans. No

Qu. Request: CNCCNS(=O)(=O)c1cccc2cnccc12
Ans. No

Qu. Another molecule to check: CC[N+](CC)(CC)CC(=O)Nc1c(C)cccc1C
Ans. No

Qu. Quick one: CCCOC(=O)c1c(-c2ccccc2)nc(CC)c(C(=O)SCC)c1CCC
Ans. Yes

Qu. Then this molecule: NC(N)=N[C@@H](CCC(=O)O)C(=O)O
Ans. No
